- run_description: Confirmation and Secondary Assay for Modulators of Hemoglobin Beta Chain Splicing at IVS2 654 locus (AID 910);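 also: HeLa cells stably carrying EGFP split by mutant beta-globin IVS2-654 intron; per-well total GFP intensity by laser scanning cytometry after 2-day treatment; % of control where 0% means no effect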
- study_conditions: HeLa EGFP-654 splicing reporter, GFP fluorescence, 48 h; series mostly up to 46.1 µM
Active and inactive are the calls of the source. Calls follow the shape of the dose curve; as a rule, active = well fitted activation curve with a large enough effect; inconclusive = small, poorly fitted or top-dose-only effect; inactive = flat fitted curve, though single readings scatter.
test_readout: outcome

>>> test_value("COc1ccc2ccc(=O)oc2c1CC=C(C)C")
"inactive"
>>> test_value("COc1ccnc(CS(=O)c2nc3ccc(OC(F)F)cc3[nH]2)c1OC (centres undefined)")
"inactive"
>>> test_value("NCC1CCC(C(=O)O)CC1 (centres undefined)")
"inactive"
>>> test_value("CC1(C)OC2CC3C4CC(F)C5=CC(=O)C=CC5(C)C4C(O)CC3(C)[C@]2(C(=O)CO)O1 (some centres undefined)")
"inactive"

###

Let's look at some compounds and their measured Z-AUC.
- run_description: qHTS drug screen for cell cycle checkpoint inhibitors in PARPi-resistant BRCA-mutant ovarian cancer cell lines. (AID 1963452)
- study_conditions: PEO1/OlaR viability, CellTiter-Glo luminescence, 96 h; measured here: PEO1 parental Z-AUC; stronger effect = lower value

Study these solved cases before continuing.
>>> test_value("CC1CCN(c2cc(N3CCN(C)CC3)ccc2NC(=O)c2cc(C#N)c[nH]2)CC1")
-0.115
>>> test_value("O=C(O)C1=CC(O)C(O)[C@H](O)C1 (stereo partly specified)")
1.52
>>> test_value("CC(C)Oc1cc(Nc2nc(N[C@@H](C)c3ccc(F)cn3)ncc2Cl)[nH]n1")
-1.36

Form field Z-AUC, entry NCC1CCC(C(=O)O)CC1 (stereo unspecified) : -0.68

###

- run_description: qHTS of pediatric cancer cell lines to identify multiple opportunities for drug repurposing: Primary screen for OHS-50 cells (AID 1347103); also: potency is read from the fitted curve at half-maximal effect; nearly all actives have a fitted effect of over 40% in size
- study_conditions: OHS-50 osteosarcoma viability, CellTiter-Glo luminescence, 48 h; series mostly up to 57.3 µM
Inconclusive results are not listed. Activity calls are given as the source filed them. The call rests on the fitted dose curve; in most records, active means well fitted cell-killing curve with a large enough effect; inconclusive means small, poorly fitted or top-dose-only effect; inactive means no such curve, though single readings can be large or run the other way.
Reported values of Potency for individual entries

>>> test_value("CN(C)CC[C@H](CSc1ccccc1)Nc1ccc(S(=O)(=O)NC(=O)c2ccc(N3CCN(Cc4ccccc4-c4ccc(Cl)cc4)CC3)cc2)cc1[N+](=O)[O-]")
"6.85 µM (active)"
>>> test_value("CCC(=O)N1CCN(c2ccc(-n3c(=O)ccc4cnc5ccc(-c6cnc7ccccc7c6)cc5c43)cc2C(F)(F)F)CC1")
"0.0432 µM (active)"

# input for lookup
The reported Potency of the molecule CC[C@H](CC#N)OC(=O)N[C@@H](C)c1cccc(NC(=O)Nc2ccc(-c3cnco3)c(OC)c2)c1 was 7.69 µM (active)

###

- Tested on: WaGa
- run_description: qHTS assay to identify novel small-molecules to repurpose for Merkel cell carcinoma treatment (AID 1296009); also: nearly all actives have a fitted effect of over 60% in size
- study_conditions: MCC and control cell lines, CellTiter-Glo viability, 72 h; series mostly up to 46 µM
Inconclusive results are not listed. Activity calls are given as the source filed them. The call rests on the fitted dose curve; in most records, active means well fitted inhibition curve with a large enough effect; inconclusive means small, poorly fitted or top-dose-only effect; inactive means flat fitted curve, though single readings scatter.
API: response.call in active, inactive

Record excerpt, results attached:
>>> answer_label("CC=C(C(=CC)c1ccc(O)cc1)c1ccc(O)cc1")
"inactive"
>>> answer_label("COc1nccc(-c2c(-c3ccc(F)cc3)ncn2C2CCNCC2)n1")
"inactive"
>>> answer_label("N=C1SC(=Cc2ccc(-c3ccc4c(c3)C(=O)NC4=O)o2)C(=O)N1c1ccc(Br)cc1")
"inactive"
>>> answer_label("COc1cc(Cl)cn2c(-c3cccc(NC4CNC4)n3)cnc12")
"inactive"
>>> answer_label("C#CCN(C)CC1=Cc2ccccc2Oc2ccccc21")
"inactive"
>>> answer_label("COc1cc2nccc(Oc3ccc(NC(=O)Nc4cc(C)on4)c(Cl)c3)c2cc1OC")
"active"

Assay outcome for Cc1nc2c([nH]1)CCN(C(=O)c1ccc(NC(=O)c3ccccc3-c3ccccc3)cc1)c1ccccc1-2 : what was it?
inactive

I'd appreciate the recorded outcome for O=C(c1ccc(F)c(F)c1Nc1ccc(I)cc1F)N1CC(O)([C@H]2CCCCN2)C1 from this test.
inactive

Hi team, can someone confirm the assay call for OC(c1cc(C(F)(F)F)nc2c(C(F)(F)F)cccc12)C1CCCCN1 (stereo not drawn) ?
inactive

Could you kindly confirm the outcome this assay logged for CN(C)S(=O)(=O)c1ccc2c(c1)C(=Cc1cc3c([nH]1)CCCC3)C(=O)N2 ?
inactive

Per the assay record, what outcome was assigned to O=C1C(c2c(O)[nH]c3ccccc23)=Nc2ccccc21 ?
inactive

State the result this test recorded for CC(C)C[C@H](NC(=O)c1cc2ccccc2s1)C(=O)N1CCN(C(=O)[C@H](CO)NS(=O)(=O)c2ccc(Cl)cc2Cl)CC1 .
inactive

Dear all, I need the recorded test outcome for COC(=O)Nc1ccc(-c2nc(N3CCOCC3)c3cnn(C4CCN(C(=O)OC)CC4)c3n2)cc1 , thank you.
active

Entry C[C@H](c1ccc(F)cc1CCCC(=O)O)N(c1cc(F)ccc1F)S(=O)(=O)c1ccc(Cl)cc1 : call = ?
inactive

What outcome does the record of this test show for Cc1cccc2c1CC[C@H](CN1CCC(c3c(Cl)cccc3Cl)CC1)C[C@@H]2O ?
inactive

Please share the test call associated with C=C[C@@H]1CN2CCC1C[C@@H]2C(O)c1ccnc2ccc(OC)cc12 (stereo partly drawn) .
inactive

Please let me know the test result on file for CCN1CCC(n2cc(CNc3cc(Cl)c4ncc(C#N)c(Nc5ccc(F)c(Cl)c5)c4c3)nn2)CC1 .
inactive
